- TARGET_OR_SYSTEM: T1, recombinant human Nectin-4-His protein (human, UniProt Q96NY8 32-349)
- T1 construct: Rescreening antigen and bought ELISA antigen are treated as one molecule; also called human Nectin-4-His tagged; Ag1; not shown: His tag
- T1 sequence: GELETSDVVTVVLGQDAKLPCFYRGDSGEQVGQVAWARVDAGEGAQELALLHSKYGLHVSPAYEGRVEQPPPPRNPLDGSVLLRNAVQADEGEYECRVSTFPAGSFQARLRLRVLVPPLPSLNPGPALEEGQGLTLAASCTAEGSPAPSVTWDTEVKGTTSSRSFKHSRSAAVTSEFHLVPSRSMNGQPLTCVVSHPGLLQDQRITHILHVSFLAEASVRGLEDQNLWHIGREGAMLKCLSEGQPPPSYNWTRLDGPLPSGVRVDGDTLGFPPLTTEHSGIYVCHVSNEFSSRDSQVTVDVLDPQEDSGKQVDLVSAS
- PROCEDURE_TEXT: ELISA, coated antigen
Catalogue of binders with associated EC50
MEASURE_NAME: EC50 (pM)

>>> experimental_result("Nectin-4 5D9H/5D9L (recombinant chimeric antibody) (antibody, V domains shown, also called Nectin-4 5D9 chimeric mAb) VH: QVQLKQSGPGLVQPSQSLSITCTVSGFSLTNYGVHWVRQSPGKGLEWLGVIWSGGSTDYNAAFVSRLSISRDNSKSQVFFKMNSLQADDTAIYYCARSGKWYYFDYWGQGTTLTVSS VL: DIQMTQSPASLSVSVGETVTITCRASENIYSNLAWYQQKQGKSPQLLVYAATNLADGVPSRFSGSGSGTQYSLKINSLQSEDFGSYYCQHFWGTPTFGGGTKLEIK")
191
>>> experimental_result("Nectin-4 5D9 VH2/VL2 (antibody, V domains shown, Humanized; also called 5D9 VH variant 2 / 5D9 VL variant 2) VH: QVQLQESGPGLVKPSETLSLTCTVSGFSITNYGVHWIRQPPGKGLEWLGVIWSGGSTDYNASLVSRVTISRDTSKSQFFLKLNSVQADDTAVYYCARSGKWYYFDYWGQGTTVTVSS VL: DIQMTQSPSSLSASVGDTVTITCRASQNIYSNLAWYQQKQGKAPKLLVYAATNLADGVPSRFSGSGSGTDFTLKINSLQPEDFATYYCQHFWGTPTFGGGTKVEIK")
172000
>>> experimental_result("Nectin-4 5D9 VH1/VL1 (antibody, V domains shown, Humanized; also called 5D9 VH variant 1 / 5D9 VL variant 1) VH: QVQLKESGPGLVQPSETLSLTCTVSGFSITNYGVHWIRQSPGKGLEWLGVIWSGGSTDYNAAFVSRVTISRDNSKSQVFFKLNSVQADDTAVYYCARSGKWYYFDYWGQGTTVTVSS VL: DIQMTQSPASLSASVGDTVTITCRASQNIYSNLAWYQQKQGKSPQLLVYAATNLADGVPSRFSGSGSGTQYTLKINSLQSEDFGTYYCQHFWGTPTFGGGTKVEIK")
225
